Catalogue of compounds with associated growth inhibition
- method.description: NCI Yeast Anticancer Drug Screen. Data for the mlh1 rad18 strain (AID 175)
- measurement.context: S. cerevisiae mlh1 rad18 strain growth inhibition, hits give high values; at 50.0 µM unless noted
Compounds without any hit were thinned out: in the full panel of roughly 79,000, 15% have a hit.
Write the value in % as a bare number.

Illustrative cases are given below, each with its answer.
COc1ccc(C(=O)/C=C/c2ccc(OCC#N)cc2)cc1OC
-54.1
COc1ccc(OC)c(NC(=O)CCCC(=O)C(C#N)c2ccc(CC#N)cc2)c1 (stereo unspecified)
-25.6
CCn1c2ccccc2c2ccccc21
17.4
Cc1cc(C(=O)O)cc(C)c1N(C)C=O
4.45
CCOC(=O)C(C)N1C(=O)c2ccccc2C1=O (stereo unspecified)
0.55

Now look at this entry.
Q: Look up growth inhibition for this compound: "CS(=O)(=O)c1ccc(/C(=N/N)c2ccccc2)cc1"
Result: 17.4

---

- method.description: NCI Yeast Anticancer Drug Screen. Data for the bub3 strain (AID 167)
- measurement.context: S. cerevisiae bub3 mutant strain, hits give high values; at 50.0 µM unless noted
About 79,000 compounds went through this panel and 15% of them were active in at least one assay; those are over-represented in the sample as a whole.
Catalogue of compounds with associated growth inhibition
Write the value in % as a bare number.

CCCCCCCCCCCCCCCCCn1nnnc1N
-12.3
CCCCC/C(=N\c1nc[nH]c1C(N)=O)OCC
-27.8
Cc1ccccc1Cc1nccc2c1[nH]c1ccccc12
-8.45
CC(C)(C)C1C=C(Sc2ccccc2)C(=O)O1 (stereo not drawn)
61.2
Cc1ccccc1S(N)(=O)=O
-6.95

Q: Look up growth inhibition for this compound: "CNC(=O)c1n[nH]nc1Sc1c([N+](=O)[O-])ncn1C"
Result: -20.6

Q: Look up growth inhibition for this compound: "C=C1C(=O)O[C@@H]2O[C@@]3(C)CC[C@H]4[C@H](C)CC[C@@H]1[C@@]24O3"
Result: 12.2

Q: Look up growth inhibition for this compound: "C[C@H]1/C(=C/C(=O)OCCN(C)C)CC[C@H]2[C@H]1C(=O)C[C@H]1C(C)(C)[C@@H](O)CC[C@]21C"
Result: 15.9

Q: Look up growth inhibition for this compound: "NNC(=O)CCC(=O)O"
Result: 12.7

Q: Look up growth inhibition for this compound: "OCCN(CCO)c1ncnc2c1sc(=S)n2-c1ccccc1"
Result: -5.65

---

- method.description: NCI Yeast Anticancer Drug Screen. Data for the rad50 strain (AID 155);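 note: 0% = growth of vehicle-only cultures of the same strain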
- measurement.context: S. cerevisiae rad50 strain growth inhibition, hits give high values; at 50.0 µM unless noted
Compounds without any hit were thinned out: in the full panel of roughly 79,000, 15% have a hit.
metric: growth inhibition (%)
Write the value in % as a bare number.

CNC(=S)NCOCCOC(C)=O
6.75
Cc1nc2c(c(=O)[nH]1)C(c1ccccc1)C(C)(C)O2 (centres undefined)
3.6
CCCCCCCCCCCC(=O)NCc1ccc(OC(=O)CCCCCCCCCCC)c(OC)c1
-7.55
CCCNCCCCCCNc1cc(OC)cc2cccnc12
54.9
CN(Cc1ccccc1Cl)C(=O)Nc1cccc(Cl)c1
61.5

Q: Look up growth inhibition for this compound: CC(C#N)C(=O)O (centres undefined)
Result: -3.55

Q: Look up growth inhibition for this compound: CC(N1CCS(=O)(=O)CC1)P(=O)(O)O (centres undefined)
Result: 0.3

Q: Look up growth inhibition for this compound: CC(C)(C)OC(=O)NCC(=O)NC1C/C(=N\O)c2sccc21 (centres undefined)
Result: 17.4

Q: Look up growth inhibition for this compound: "S=C(NC1CCCCC1)SSSC(=S)NC1CCCCC1"
Result: -6.7

Q: Look up growth inhibition for this compound: CC1SCc2nc3ccccc3n21 (centres undefined)
Result: 2.25

Q: Look up growth inhibition for this compound: C=CCC1(CN(C)C)CC/C(=C\c2ccc(Cl)cc2)C1=O (centres undefined)
Result: 55.2

Q: Look up growth inhibition for this compound: "C/C(=N\NC(=S)N1CCN(c2ccccn2)CC1)c1cccc(C)n1"
Result: 90.3

Q: Look up growth inhibition for this compound: "CCOc1ccc(OCC)c(NC=O)c1"
Result: -9

Q: Look up growth inhibition for this compound: "CNC(=O)OCc1c(COC(=O)NC)c(C)n(-c2ccc(Cl)cc2)c1C"
Result: 38.8

Q: Look up growth inhibition for this compound: "CCCC(=O)NC1CCCCC1"
Result: -22.2

Q: Look up growth inhibition for this compound: "O=C1c2ccccc2C(=O)N1CCCCCCS(=O)(=O)Cl"
Result: 13.7

Q: Look up growth inhibition for this compound: "CC(=O)NCCc1ccccc1"
Result: -18.2

Q: Look up growth inhibition for this compound: "Clc1ccccc1NN(Cc1ccncc1)c1ccccc1Cl"
Result: 55.6

Q: Look up growth inhibition for this compound: "c1ccc(CSCc2cnc[nH]2)cc1"
Result: -1.3

Q: Look up growth inhibition for this compound: "C1=C(Nc2ccccc2)C(=Nc2ccccc2)C=C(Nc2ccccc2)C1=Nc1ccccc1"
Result: -17.2

Q: Look up growth inhibition for this compound: O=c1[nH]c2ccc([N+](=O)[O-])cc2nc1/C(=N/Nc1ccccc1)C(O)c1ccco1 (centres undefined)
Result: -4.6

Q: Look up growth inhibition for this compound: CC(C)=CC1(C)/C(=N\O)C(C)(CC(C)C)C(=O)N1O (centres undefined)
Result: -7.15

---

- method.description: NCI Yeast Anticancer Drug Screen. Data for the cln2 rad14 strain (AID 165);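 note: 0% = growth equal to vehicle treated cultures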
- measurement.context: S. cerevisiae cln2 rad14 strain, hits give high values; at 50.0 µM unless noted
Compounds without any hit were thinned out: in the full panel of roughly 79,000, 15% have a hit.
Catalogue of molecules with associated growth inhibition
Write the value in % as a bare number.

OC1c2ccccc2C2c3ccccc3C1C2Cl (stereo not drawn)
35.3

Q: Look up growth inhibition for this molecule: "CN(C)c1ccc(/C=C/C(=O)N[C@@H]2C(=O)N3[C@@H]2SC(C)(C)[C@@H]3C(=O)O)cc1"
Result: 6.35

Q: Look up growth inhibition for this molecule: "COc1ccccc1NC(=O)C1=C(C)NC(C)=C(C(=O)Nc2ccccc2OC)C1c1ccccc1F"
Result: 16

Q: Look up growth inhibition for this molecule: "COc1ccc(CNC(=O)CC(C)=O)cc1"
Result: 7.25

Q: Look up growth inhibition for this molecule: CC1CCCN1c1ccnc2cc(Cl)ccc12 (stereo not drawn)
Result: -2.2

Q: Look up growth inhibition for this molecule: "CCCCn1cnc2c(SC)ncnc21"
Result: -0.35

Q: Look up growth inhibition for this molecule: "O=S(=O)(O)c1cc(S(=O)(=O)O)c2cc(O)ccc2c1"
Result: -18.6

---

- method.description: NCI Yeast Anticancer Drug Screen. Data for the rad50 strain (AID 155);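 note: 0% = growth of vehicle-only cultures of the same strain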
- measurement.context: S. cerevisiae rad50 strain growth inhibition, hits give high values; at 50.0 µM unless noted
About 79,000 compounds went through this panel and 15% of them were active in at least one assay; those are over-represented in the sample as a whole.
Catalogue of compounds with associated growth inhibition
Write the value in % as a bare number.

Illustrative cases are given below, each with its answer.
O=C1CC2c3ccccc3CCN2C2=C1CCC2 (stereo unspecified)
13.6
Oc1cc2c(cc1-c1cc3c(cc1O)OCO3)OCO2
-21.1
O=C1c2ccccc2C(=O)c2c1ccc1c3ccccc3n(-c3ccccc3)c21
7.4

Q: Look up growth inhibition for this compound: "CCCCCCCCN1CCOCCOCCN(CCCCCCCC)c2nc(Cl)nc(n2)NCCOCCOCCNc2nc(Cl)nc1n2"
Result: 7.8

Q: Look up growth inhibition for this compound: "CCOc1ccc(N=Nc2c(O)n(-c3ccc(Cl)cc3)c(=S)n(-c3ccccc3)c2=O)cc1"
Result: -15.2

Q: Look up growth inhibition for this compound: "Clc1nc(-c2ccccc2)ns1"
Result: 1.9

---

- method.description: NCI Yeast Anticancer Drug Screen. Data for the mec2-1 strain (AID 157)
- measurement.context: S. cerevisiae mec2-1 strain, hits give high values; at 50.0 µM unless noted
Compounds without any hit were thinned out: in the full panel of roughly 79,000, 15% have a hit. Where a SMILES comes first, the peptide text is derived from it. The star is where a group is joined. Cbz = O=C(OCc1ccccc1)*
Catalogue of molecules with associated growth inhibition
Write the value in % as a bare number.

Illustrative cases are given below, each with its answer.
Oc1ccc(/C=C\c2cnccn2)cc1
7.3
CCOC(=O)c1sc2c(c1OC(=O)c1ccc(OC)cc1)c(=O)n(-c1ccccc1)c(=S)n2-c1ccccc1
9.65
Nc1ccc2ncc(Nc3ccc(F)cc3)nc2c1
-22.6
CC1=C2CC(C)(C)CC(=O)C2(C)CCC1=O (stereo not given)
-6.55
CC(=O)Cc1ncn(-c2cc(C)on2)n1
-20.4

Q: Look up growth inhibition for this molecule: "O=S(=O)(Cl)c1ccc(Cl)cc1"
Result: 13.1

Q: Look up growth inhibition for this molecule: NC(=O)C(Cc1ccccc1)NC(=O)C(Cc1ccccc1)NC(=O)C(Cc1ccccc1)NC(=O)OCc1ccccc1 (stereo not drawn) (Cbz-Phe-Phe-Phe-NH2; configuration not given here)
Result: 7.8

Q: Look up growth inhibition for this molecule: "Cc1nc2c(n1-c1ccc(Br)cc1)C(=O)c1ccccc1C2=O"
Result: -17.9

Q: Look up growth inhibition for this molecule: CNC(=O)NCCCCC(NC(=O)OCc1ccccc1)C(=O)OCc1ccccc1 (stereo not given)
Result: -14

Q: Look up growth inhibition for this molecule: "CCOC(=O)CSc1nc(-c2ccccc2)c(C#N)c(=O)[nH]1"
Result: 1.2
